System: TK-10 renal
EXPERIMENTAL DETAILS: NCI tumour cell line growth inhibition, 48 h
For each record, write down the corresponding TGI.

stdin: Requested field: TGI. Item: Cc1ccc(NC(=O)Cc2ccc(/C=C/C(=O)c3ncc[nH]3)cc2)cc1
stdout: > 25 µM

stdin: Requested field: TGI. Item: NC(=O)c1cccc(C2OC(COP(=O)(O)O)C(O)C2O)c1 (stereo unspecified)
stdout: > 50 µM

stdin: Requested field: TGI. Item: CC(C)(C)OC(=O)NCC(=O)NC1c2ccsc2/C(=N/O)[C@H]1O (stereo partly specified)
stdout: > 100 µM

stdin: Requested field: TGI. Item: Cc1oc2c(C)c3oc(=O)cc(C)c3cc2c1CNC(=O)[C@@H]1OCCOCCOCCOCCOCCOC1C(=O)O (stereo partly specified)
stdout: > 100 µM

stdin: Requested field: TGI. Item: COc1ccc(/C=C2\C(=O)N(C)C(=O)c3cc(OC)c(OC)cc32)cc1OC
stdout: > 100 µM

stdin: Requested field: TGI. Item: COC(=O)[C@H](Cc1ccccc1)NC(=O)N1CCCN(C(=O)N[C@@H](Cc2ccccc2)C(=O)OC)CCCN(C(=O)N[C@@H](Cc2ccccc2)C(=O)OC)CCC1
stdout: 65.4 µM

stdin: Requested field: TGI. Item: N/C(=N\S(=O)(=O)c1cccc2nsnc12)Nc1ccc(Cl)cc1
stdout: 62.8 µM

stdin: Requested field: TGI. Item: O=[N+]([O-])c1ccc(-c2nc3ccc([N+](=O)[O-])cc3[nH]2)cc1
stdout: > 100 µM

stdin: Requested field: TGI. Item: Cc1n[nH]c(=O)n1C1CCCC1
stdout: > 100 µM

stdin: Requested field: TGI. Item: O=c1c2ccccc2c(Br)c(Br)c2ccccc12
stdout: 18 µM

stdin: Requested field: TGI. Item: COc1cc(C(=O)N2N=C(c3ccc(S(C)(=O)=O)cc3)CC2c2ccco2)cc(OC)c1OC (stereo unspecified)
stdout: > 100 µM

stdin: Requested field: TGI. Item: Cc1ccc(S(=O)(=O)n2c3c(c4ccccc42)CCN2C(=O)C(S(=O)(=O)c4ccccc4)=CCC32)cc1 (stereo unspecified)
stdout: 0.282 µM

stdin: Requested field: TGI. Item: N#CC(/C(=N/NC(=O)C(=O)NN)C(=O)Nc1nc([N+](=O)[O-])cs1)c1ccc(Cl)cc1 (stereo unspecified)
stdout: > 100 µM

stdin: Requested field: TGI. Item: O=C(O)C1=CCCc2ccc3ccccc3c21
stdout: > 100 µM

stdin: Requested field: TGI. Item: CC(C)(C)OC(=O)CC(NC(=O)OC(C)(C)C)C(=O)N[C@@H]1CCCC[C@H]1C(=O)OCc1ccccc1 (stereo partly specified)
stdout: 79.6 µM

stdin: Requested field: TGI. Item: O=c1[nH]cnc2c1sc1nc3ccccc3n12
stdout: > 100 µM

stdin: Requested field: TGI. Item: O=Cc1c2ccccc2n2ccc3c4ccccc4[nH]c3c12
stdout: > 10 µM

stdin: Requested field: TGI. Item: O=c1[nH]c2ccc(Cl)cc2c2oc(-c3ccccc3)nc12
stdout: 80.7 µM

stdin: Requested field: TGI. Item: COC(=O)C1CCC(Nc2ccc(C)cc2C)=N1 (stereo unspecified)
stdout: > 100 µM

stdin: Requested field: TGI. Item: Nc1nc2sc3ccccc3c(=O)n2n1
stdout: > 100 µM

stdin: Requested field: TGI. Item: COC(=O)CC1C(COC(C)=O)OC(n2cc(C)c(=O)[nH]c2=O)C1OC(C)=O (stereo unspecified)
stdout: > 100 µM

---

For each record, write down the corresponding TGI.
Tested on: MOLT-4 leukemia
EXPERIMENTAL DETAILS: NCI tumour cell line growth inhibition, 48 h

stdin: Requested field: TGI. Item: COc1ccc(-n2cc(-c3cc(OC)c(OC)c(OC)c3)nc2SCc2ccccc2)cc1
stdout: > 100 µM

stdin: Requested field: TGI. Item: CN(C)c1ccc(/C=C(\NC(=O)c2ccccc2)C(=O)NCC(=O)O)cc1
stdout: > 100 µM

stdin: Requested field: TGI. Item: C=CCc1cc(-c2cc(CC=C)c(O)c(CNC)c2)cc(CNC)c1O
stdout: 31.1 µM

stdin: Requested field: TGI. Item: O=C(CC(=O)Nc1cccc(Cl)c1)NNCC(=O)Nc1nnc(-c2ccccc2)s1
stdout: > 100 µM

stdin: Requested field: TGI. Item: COc1ccc(NC(=O)CC(=O)N2N=C(N(CCC#N)c3ccccc3Cl)CC2c2ccccc2)cc1 (stereo not given)
stdout: > 100 µM

---

For each record, write down the corresponding TGI.
Tested on: TK-10 renal
EXPERIMENTAL DETAILS: NCI tumour cell line growth inhibition, 48 h
Respond numerically; units are µM and should not be typed.

stdin: Requested field: TGI. Item: COc1ccc2nc3cc(Cl)ccc3c(NCCC[N+](C)(C)CCCCCCCCCCCCCCCC[N+](C)(C)CCCNc3c4ccc(Cl)cc4nc4ccc(OC)cc34)c2c1
stdout: 25.3

stdin: Requested field: TGI. Item: O=c1cc(-c2ccccc2)oc2cc(O)c(O)c(O)c12
stdout: 81.2

stdin: Requested field: TGI. Item: COc1ccc(C2CC(c3cccc(Nc4ccncc4)c3)=NN2c2ccc(Cl)cc2)cc1 (stereo not given)
stdout: 3.5

stdin: Requested field: TGI. Item: Cc1ccccc1C1=[N+]([O-])c2ccccc2C1=O
stdout: 32.2

---

Test system: SR leukemia
EXPERIMENTAL DETAILS: NCI tumour cell line growth inhibition, 48 h; in the data active = GI50 below about 0.43 µM; inactive = the rest
Respond only with the outcome that fits, drawn from Yes (active), No (inactive)

stdin: In this assay, the call recorded for CC(=O)N1N=C(c2ccc(Nc3nc(Nc4ccc(Cl)cc4)nc(Nc4ccc(Cl)cc4)n3)cc2)CC1c1ccc([N+](=O)[O-])cc1 (stereo not given) was what?
stdout: No

stdin: In this assay, the call recorded for N=C(N)c1ccc(OCCOCCOc2ccc(C(=N)N)cc2)cc1 was what?
stdout: No

stdin: In this assay, the call recorded for CC(C)Nc1ccc(Nc2ccccc2)cc1 was what?
stdout: No

stdin: In this assay, the call recorded for Cn1cc(C2=C(c3cn(CCO)c4ccccc34)C(=O)NC2=O)c2ccccc21 was what?
stdout: No

stdin: In this assay, the call recorded for S=C(N/N=C(/c1ccccc1)c1ccccn1)N1CCCCC1 was what?
stdout: Yes

---

Test system: ACHN renal
EXPERIMENTAL DETAILS: NCI tumour cell line growth inhibition, 48 h; in the data active means GI50 below about 0.43 µM; inactive means the rest
Respond only with the outcome that fits, drawn from active, inactive

stdin: In this assay, the call recorded for Fc1ccc(-c2nn3c(-c4ccc(F)c(Cl)c4)nnc3s2)cc1 was what?
stdout: inactive

stdin: In this assay, the call recorded for O=c1ccc(N=Nc2ccc([N+](=O)[O-])cc2)ccc1O was what?
stdout: inactive

stdin: In this assay, the call recorded for CC(C)Nc1ccc(Nc2ccccc2)cc1 was what?
stdout: inactive

stdin: In this assay, the call recorded for CN(Cc1ccc(Cl)cc1)c1ccc(CO)c(Cl)c1 was what?
stdout: inactive

stdin: In this assay, the call recorded for N#C/C(=N\Nc1ccc(Cl)cc1)C(=O)Nc1cc(-c2ccccc2)nn1-c1ccccc1 was what?
stdout: inactive

stdin: In this assay, the call recorded for O=C(Nc1ccc(F)cc1)Nc1ccccc1CNc1nc(Nc2ccc(OCCN3CCCC3)cc2)ncc1Cl was what?
stdout: inactive

stdin: In this assay, the call recorded for [Cl][Sn]([Cl])([c]1ccccc1)[c]1ccccc1 was what?
stdout: inactive

stdin: In this assay, the call recorded for N#Cc1ncc(-c2ccc(C(F)(F)F)cc2)c(NCc2cc(C(F)(F)F)cc(C(F)(F)F)c2)n1 was what?
stdout: inactive

stdin: In this assay, the call recorded for CC(=O)O[C@@]12CO[C@@H]1C[C@H](O)[C@@]1(C)C(=O)[C@H](O)C3=C(C)[C@@H](OC(=O)[C@H](O)[C@@H](NC(=O)OC(C)(C)C)c4ccccc4)C[C@@](O)([C@@H](OC(=O)c4ccccc4)[C@H]21)C3(C)C was what?
stdout: active

---

For each record, write down the corresponding TGI.
Tested on: SF-295 CNS
EXPERIMENTAL DETAILS: NCI tumour cell line growth inhibition, 48 h

stdin: Requested field: TGI. Item: Cn1c(N)c(C(N)=O)[nH]c1=S
stdout: > 100 µM

stdin: Requested field: TGI. Item: Cc1nc(-c2ccccc2)c(Cc2ccccc2O)c(=O)[nH]1
stdout: > 100 µM

stdin: Requested field: TGI. Item: O=C(NCCCCN(CCCNC(=O)C(F)(F)F)Cc1ccc2ccccc2c1)C(F)(F)F
stdout: 32.7 µM

---

Test system: CAKI-1 renal
EXPERIMENTAL DETAILS: NCI tumour cell line growth inhibition, 48 h
For each record, write down the corresponding TGI.

stdin: Please provide the recorded TGI for Nc1cc2c(nnn2C2OC(COCc3ccccc3)C(OCc3ccccc3)C2OCc2ccccc2)c(=O)[nH]1 (stereo not given) , tested on CAKI-1 renal.
stdout: > 100 µM

stdin: Please provide the recorded TGI for CCCCCCCCCCCCCCCc1ccc(OCC(O)CO)cc1 (stereo not given) , tested on CAKI-1 renal.
stdout: > 100 µM

stdin: Please provide the recorded TGI for Cc1ccc(Cc2n[nH]c(=O)n2-c2ccccc2)cc1 , tested on CAKI-1 renal.
stdout: > 100 µM

stdin: Please provide the recorded TGI for Cn1ccnc1C(=O)/C=C/c1ccc(C(=O)Nc2ccc(S(F)(F)(F)(F)F)cc2)cc1 , tested on CAKI-1 renal.
stdout: > 14.3 µM

stdin: Please provide the recorded TGI for O=C(O)c1cc(=O)[nH]c(SCc2ccccc2)n1 , tested on CAKI-1 renal.
stdout: > 100 µM

stdin: Please provide the recorded TGI for CCCc1cc(O)c2c3c(c(=O)oc2c1)CN(C)CC3 , tested on CAKI-1 renal.
stdout: > 100 µM

stdin: Please provide the recorded TGI for O=C(C=Nc1ccccc1C(=O)[O-])c1cccs1.O=C(C=Nc1ccccc1C(=O)[O-])c1cccs1.[Co+2] , tested on CAKI-1 renal.
stdout: > 100 µM

stdin: Please provide the recorded TGI for O=S(=O)(O)CCCC1S(=O)(=O)OCCOS1(=O)=O , tested on CAKI-1 renal.
stdout: > 100 µM

stdin: Please provide the recorded TGI for O=S(=O)(N/N=C1\CC2CCC1C2)c1ccccc1 (stereo not given) , tested on CAKI-1 renal.
stdout: > 100 µM

stdin: Please provide the recorded TGI for CCOC(=O)c1sc2ncn(Cc3cccc(Br)c3)c(=O)c2c1C , tested on CAKI-1 renal.
stdout: 97.5 µM

stdin: Please provide the recorded TGI for CCN(CC)CCCn1cnc2ncccc2c1=O , tested on CAKI-1 renal.
stdout: > 100 µM

stdin: Please provide the recorded TGI for N#Cc1n[nH]n(C2CCCCC2)c1=O , tested on CAKI-1 renal.
stdout: > 100 µM

stdin: Please provide the recorded TGI for S=C1Cc2c(-c3ccc(Cl)cc3)cc(-c3ccccc3)nc2-c2ccccc2N1 , tested on CAKI-1 renal.
stdout: 13.1 µM

stdin: Please provide the recorded TGI for O=Cc1c2ccccc2n2ccc3c4ccccc4[nH]c3c12 , tested on CAKI-1 renal.
stdout: > 10 µM

stdin: Please provide the recorded TGI for CN(C)CCC(O)(c1ccccc1)C(O)(CCN(C)C)c1ccccc1 (stereo not given) , tested on CAKI-1 renal.
stdout: > 100 µM

stdin: Please provide the recorded TGI for O=c1c2ccccc2c(Br)c(Br)c2ccccc12 , tested on CAKI-1 renal.
stdout: 4.39 µM

stdin: Please provide the recorded TGI for CC(=O)O[C@@]12CO[C@@H]1C[C@H](O)[C@@]1(C)C(=O)[C@H](O)C3=C(C)[C@@H](OC(=O)[C@H](O)[C@@H](NC(=O)OC(C)(C)C)c4ccccc4)C[C@@](O)([C@@H](OC(=O)c4ccccc4)[C@H]21)C3(C)C , tested on CAKI-1 renal.
stdout: 81.8 µM

stdin: Please provide the recorded TGI for CCOc1ccc(-c2cnnn2-c2nonc2-n2cccc2)cc1 , tested on CAKI-1 renal.
stdout: > 100 µM

stdin: Please provide the recorded TGI for CC(=O)Oc1cc(C)c2c(c1OC(C)=O)CC1(O2)[C@@H](C)CCC2[C@@]3(C)CC[C@H](OC(C)=O)C(C)(C)C3CC[C@]21C (stereo not given in full) , tested on CAKI-1 renal.
stdout: 4.3 µM

stdin: Please provide the recorded TGI for C=C1[C@H](OC(=O)C(C)C)[C@]23CC4(O)[C@@H]5[C@@]6(C)CCC[C@]57C([C@@H]2C[C@@]1(O)[C@H](O)[C@@H]73)N4C6 , tested on CAKI-1 renal.
stdout: > 100 µM
